Data origin, for the record: ChEMBL document CHEMBL4513146

# System: Candida albicans
# Condition parameters: Concentration 32 ug.mL-1; ASSAY_TEST Inhibition of Fungal Growth; detection method Absorption (OD530)
# Description: Antifungal activity against Candida albicans ATCC 90028 (CO-ADD:FG_001); MIC in YNB media using NBS plates, by OD630
Potency and affinity values are given separately.
Metric: Inhibition (%)
Please state the figure in %; there is no need to write the unit.

Asked: Consider the molecule shown here: COc1cccc(CN(c2ccc(F)c(F)c2)S(=O)(=O)c2ccc3nnc(C)n3c2)c1 What is its recorded Inhibition?
Given back: 1.78

Asked: Thanks! And COc1ccccc1NC(=O)Cn1nc2n(CCCOC(C)C)c(=O)c3ccccc3n2c1=O ?
Given back: 2.2

Asked: Thanks! And Cc1ccc(NC(=O)Cn2nc3c4c5c(sc4ncn3c2=O)CCCC5)cc1C ?
Given back: 3.92

Asked: Thanks! And CCCCOc1ccc(-c2cc3c4nnc(SCC(=O)Nc5ccccc5Cl)n4ccn3n2)cc1 ?
Given back: 2.9

Asked: Thanks! And Cc1nnc2c(S(=O)(=O)N(Cc3cccc(F)c3)c3ccc(C(C)C)cc3)cccn12 ?
Given back: 6.76

Asked: Thanks! And COc1ccc(NC(=O)Cn2nc3ccc(SC(C)C)nn3c2=O)cc1OC ?
Given back: 1.32

Asked: Thanks! And Cc1ccc(Sc2ccc3nn(CC(=O)Nc4ccc(Br)c(C)c4)c(=O)n3n2)cc1 ?
Given back: 11.69

Asked: Thanks! And Cc1ccc(-c2ccc3nn(CC(=O)NC4CCCCC4)c(=O)n3n2)cc1C ?
Given back: 3.29

Asked: Thanks! And CC(C)Cn1c(=O)c2sccc2n2c(=O)n(CC(=O)N3CCC(Cc4ccccc4)CC3)nc12 ?
Given back: 0.45

Asked: Thanks! And Cc1ccccc1Oc1nccn2c(=O)n(CC(=O)Nc3ccc(C#N)cc3)nc12 ?
Given back: -1.85

Asked: Thanks! And O=C(Cn1nc2ccc(C(=O)NCc3ccccc3)cn2c1=O)Nc1ccc(Br)cc1 ?
Given back: 2.27

Asked: Thanks! And O=c1c2sccc2n2c(SCc3cccc(C(F)(F)F)c3)nnc2n1Cc1ccc(F)cc1 ?
Given back: 2.55

Asked: Thanks! And O=c1c2sccc2n2c(=O)n(Cc3c(F)cccc3Cl)nc2n1Cc1cccs1 ?
Given back: -0.79

Asked: Thanks! And COc1cc(OC)c(NC(=O)Cn2nc3c(Oc4ccccc4)nccn3c2=O)cc1Cl ?
Given back: 2.58

Asked: Thanks! And O=C(Cn1nc2c(SC3CCCCC3)nccn2c1=O)N1CCN(c2ccccc2)CC1 ?
Given back: 1.71

Asked: Thanks! And CCCCc1ccc(NC(=O)Cn2c(=O)c3nnc(C(C)C)n3c3ccccc32)cc1 ?
Given back: -0.74

Asked: Thanks! And Cc1cccc(C)c1NC(=O)CSc1nnc2c3cc(-c4ccccc4)nn3ccn12 ?
Given back: -0.49

Asked: Thanks! And Cc1ccc(-n2ccn3c(=O)n(Cc4ccc(F)cc4)nc3c2=O)cc1C ?
Given back: 1.58

Asked: Thanks! And Cc1ccc(-n2ccn3c(SCC(=O)c4c[nH]c5ccccc45)nnc3c2=O)cc1C ?
Given back: 3.27

Asked: Thanks! And COc1cccc(CNC(=O)CSc2nnc3ccc(C(=O)Nc4cccc(F)c4)cn23)c1 ?
Given back: 0.25

====

Would you kindly list Inhibition for each of these molecules?
# Tested on: Klebsiella pneumoniae
# Condition parameters: Concentration 32 ug.mL-1;; ASSAY_TEST Inhibition of Bacterial Growth; detection method Absorption (OD600); MEDIA CAMHB; plate type 384well; NBS; CORNING #3640; time 18 hr
# Description: Antibacterial activity against Klebsiella pneumoniae MDR ATCC 70063 (CO-ADD:GN_003); MIC in CAMBH media using NBS plates, by OD(600)
Measured potencies and affinities stand elsewhere.
Please state the figure in %; there is no need to write the unit.

Asked: Consider the molecule shown here: O=C(CSc1nnc2ccc(C(=O)NCc3ccccc3)cn12)Nc1ccccc1Br What is its recorded Inhibition?
Given back: 13.28

Asked: Thanks! And CCOc1ccccc1NC(=O)Cn1nc2c(Sc3ccc(C)cc3C)nccn2c1=O ?
Given back: 5.52

Asked: Thanks! And COc1cccc(NC(=O)Cn2nc3c4c5c(sc4ncn3c2=O)CCCC5)c1 ?
Given back: 10.28

Asked: Thanks! And CCc1ccccc1Sc1nccn2c(=O)n(CC(=O)Nc3c(C)cccc3C)nc12 ?
Given back: 10.25

Asked: Thanks! And COc1cccc(CNC(=O)Cn2nc3c4cc(-c5cc(C)ccc5C)nn4ccn3c2=O)c1OC ?
Given back: 6.77

Asked: Thanks! And COc1ccccc1-n1ccn2c(SCc3cccc(Cl)c3)nnc2c1=O ?
Given back: 1.3

Asked: Thanks! And O=S(=O)(c1ccc2nncn2c1)N(Cc1cccc(Cl)c1)c1ccccc1 ?
Given back: 4.69

Asked: Thanks! And COc1ccc(NC(=O)Cn2nc3ccc(-c4ccccc4)nn3c2=O)cc1OC ?
Given back: -3.16

Asked: Thanks! And CCc1cccc(NC(=O)Cn2nc3c(Sc4ccc(C)cc4C)nccn3c2=O)c1 ?
Given back: -3.14

Asked: Thanks! And CCc1ccc(N(Cc2cccc(C)c2)S(=O)(=O)c2cccn3c(C)nnc23)cc1 ?
Given back: 2.32

Asked: Thanks! And Cc1ccc(-c2ccc3nnc(CCC(=O)NCc4cccc(Br)c4)n3n2)cc1 ?
Given back: 20.54

Asked: Thanks! And Cc1cccc(CN(c2ccccc2)S(=O)(=O)c2cccn3c(C)nnc23)c1 ?
Given back: 4.77

Asked: Thanks! And Cc1cc2nn(CC(=O)Nc3ccc(F)cc3F)c(=O)n2c(Nc2ccc(F)c(C)c2)n1 ?
Given back: 11.68

Asked: Thanks! And COc1ccc(C(=O)CSc2nnc3c(=O)n(-c4ccccc4)ccn23)cc1OC ?
Given back: -1.19

Asked: Thanks! And O=c1n(Cc2cccc(C(F)(F)F)c2)nc2c(S(=O)(=O)N3CCCC3)cccn12 ?
Given back: 13.65

Asked: Thanks! And O=C(Cn1nc2c3cc(-c4ccc(Cl)cc4)nn3ccn2c1=O)Nc1ccc2c(c1)OCCO2 ?
Given back: 7.68

Asked: Thanks! And O=C(Cn1nc2c(Sc3ccccc3)nccn2c1=O)Nc1cccc(Cl)c1F ?
Given back: 13.46

Asked: Thanks! And Cc1ccc(CSc2nnc3c(=O)n(-c4ccc(Br)cc4)ccn23)cc1 ?
Given back: 11.07

Asked: Thanks! And COc1ccc(-c2cc3c4nnc(SCC(=O)NCc5ccc(Cl)cc5)n4ccn3n2)cc1 ?
Given back: 6.35

Asked: Thanks! And CC(C)c1nnc2c(SCC(=O)N3CCN(c4ccc(F)cc4)CC3)nc3ccccc3n12 ?
Given back: 12.93

Asked: Thanks! And CC(C)c1ccc(N(Cc2ccccc2F)S(=O)(=O)c2cccn3cnnc23)cc1 ?
Given back: 6.21
